The values you see were collected from the RNAGym collection of RNA variant scans (doi:10.7554/elife.80360).

B1: CPEB3 Ribozyme (parent)
chain: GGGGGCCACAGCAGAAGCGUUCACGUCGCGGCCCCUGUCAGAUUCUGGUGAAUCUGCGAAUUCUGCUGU

# Variants of: B1
# ASSAY_PROCEDURE: self-cleavage, relative activity (ratio to wild type); higher = more cleavage; co-transcriptional
Respond with true (1) for self-cleavage values of 0.4 and above, false (0) for values below.

C27U U69A    true (1)
G17C U67A    false (0)
G14U A59C    false (0)
G3U U55A    false (0)

Exercise: Does U26G G37C have a reported self-cleavage of at least 0.4?
Key: false (0)

Exercise: # check: self-cleavage of U20C C22A is greater than or equal to 0.4
Key: false (0)

Exercise: Hi, just wondering whether U36G U49A shows self-cleavage of 0.4 or higher.
Key: false (0)

Exercise: Reported self-cleavage at or above 0.4? C57U
Key: false (0)

Exercise: Hello, I need to know if A23C U55A has measured self-cleavage not below 0.4. Thanks!
Key: true (1)

Exercise: Could you verify whether the entry G56U C66U shows self-cleavage of no less than 0.4?
Key: true (1)

Exercise: Could you please find out whether U36C A51G has self-cleavage that meets 0.4 or exceeds it?
Key: true (1)

Exercise: Does the variant C39A U69C have recorded self-cleavage that is 0.4 or more?
Key: true (1)

Exercise: Does the reported self-cleavage for C45G U69G fall at or above the 0.4 mark?
Key: true (1)

Exercise: Kindly determine if self-cleavage recorded for C32G C35U is above or exactly 0.4.
Key: false (0)

Exercise: Could you please find out whether G3U C32G has self-cleavage that meets 0.4 or exceeds it?
Key: false (0)

Exercise: Please check the record A13C U38A and state if its self-cleavage is at or above 0.4.
Key: true (1)

Exercise: Entry A10U C54A : is its self-cleavage no less than 0.4?
Key: true (1)

Exercise: Could you please find out whether G11A U43C has self-cleavage that meets 0.4 or exceeds it?
Key: true (1)

Exercise: Does self-cleavage meet or surpass 0.4 for G48A U53A ?
Key: true (1)

Exercise: Say whether C45U U46G shows self-cleavage of 0.4 or more.
Key: true (1)

Exercise: Quick check, self-cleavage >= 0.4? A15U C45A
Key: true (1)

Exercise: Evaluate G3A A60C : self-cleavage at minimum 0.4?
Key: false (0)
